Data origin, for the record: patent US6569878B1

Test system: phosphorylation of the retinoblastoma protein (pRb) in HCT-116 cells
assay: pRb immunoblotting (anti-Rb antibody)
Format: cell-based, human
condition details: five micromolar of each compound for 12 hours, western blot
readout type: Inhibits pRb phosphorylation

Reference set, count: 4
[[record]]
smiles_notation = "Nc1nc(Nc2ccc(S(N)(=O)=O)cc2)sc1C(=O)c1sc(Br)cc1Br"
endpoint_value = "+"

[[record]]
smiles_notation = "COc1ccc(Nc2nc(N)c(C(=O)c3ccccc3C#N)s2)cc1"
endpoint_value = "−"

[[record]]
smiles_notation = "Nc1nc(Nc2ccc(S(N)(=O)=O)cc2)sc1C(=O)c1c(F)cccc1F"
endpoint_value = "+"

[[record]]
smiles_notation = "Cc1ccsc1C(=O)c1sc(Nc2ccc(N3CCN(C)CC3)cc2)nc1N"
endpoint_value = "+"


Request: Requested read-out: Inhibits pRb phosphorylation. Entry: `CN1CCN(c2ccc(Nc3nc(N)c(C(=O)c4c(Cl)cc(C(F)(F)F)cc4Cl)s3)cc2)CC1`
Result: +

---

Test system: Saos-2
assay: Inhibition of cell growth, MTT assay, Saos-2
Type: cell-based
condition details: Homo sapiens; Saos-2, MTT assay
Counter-ions that a name gives are not always drawn.
For each record, write down the corresponding pIC50.
One number for each entry, as −log10 of the molar value.

Observe how each entry below is paired with its result.
[[record]]
molecule = "Nc1nc(Nc2ccc(N3CCOCC3)cc2)sc1C(=O)c1c(Cl)cncc1Cl [C(69)]"
endpoint_value = 4.92

[[record]]
molecule = "Nc1nc(Nc2ccc3nc[nH]c3c2)sc1C(=O)c1c(Cl)cncc1Cl [C(63)]"
endpoint_value = 5.05

[[record]]
molecule = "Nc1nc(Nc2ccc3nc[nH]c3c2)sc1C(=O)c1c(Cl)cc(C(F)(F)F)cc1Cl [C(37)]"
endpoint_value = 4.85

[[record]]
molecule = "Nc1ccc(Cl)c(C(=O)c2sc(Nc3ccc(N4CCNCC4)cc3)nc2N)c1Cl [H(2), Trihydrochloride]"
endpoint_value = 4.89

[[record]]
molecule = "Cc1cc([N+](=O)[O-])sc1C(=O)c1sc(Nc2ccc(S(N)(=O)=O)cc2)nc1N [C(95)]"
endpoint_value = 5.74

[[record]]
molecule = "Cc1ccsc1C(=O)c1sc(Nc2ccc(N(C)CCN(C)C)cc2)nc1N [C(117)]"
endpoint_value = 6.05

[[record]]
molecule = "CC(=O)N1CCN(c2ccc(Nc3nc(N)c(C(=O)c4c(Cl)cccc4Cl)s3)cc2)CC1 [C(97)]"
endpoint_value = 5.05

[[record]]
molecule = "Cc1ccsc1C(=O)c1sc(Nc2ccc3nc[nH]c3c2)nc1N [C(19)]"
endpoint_value = 5.15

[[record]]
molecule = "CC(=O)N1CCN(c2ccc(Nc3nc(N)c(C(=O)c4c(F)cccc4F)s3)cc2)CC1 [C(111)]"
endpoint_value = 5.42

[[record]]
molecule = "Nc1nc(Nc2ccc(S(N)(=O)=O)cc2)sc1C(=O)c1sc(Br)cc1Br [C(73)]"
endpoint_value = 5.89


Batch lookup, pIC50 per entry.
1. Nc1nc(Nc2ccc(S(N)(=O)=O)cc2)sc1C(=O)c1c(Cl)cc(Cl)cc1Cl [C(107)]
2. Nc1nc(Nc2ccc(N3CCNCC3)cc2)sc1C(=O)c1c(F)cccc1F [J(2)]
3. Nc1nc(Nc2ccc(S(N)(=O)=O)cc2)sc1C(=O)c1c(Cl)cc(C(F)(F)F)cc1Cl [C(38)]
4. Nc1nc(Nc2ccc(-c3ccncc3)cc2)sc1C(=O)c1c(F)cccc1F [C(122)]
5. CN1CCN(c2ccc(Nc3nc(N)c(C(=O)c4c(F)cccc4F)s3)cc2)CC1=O [C(118)]
6. Cc1ccc(C(=O)c2sc(Nc3ccc4nc[nH]c4c3)nc2N)c(C)c1 [C(20)]

Result:
1: 5.24; 2: 6.24; 3: 5.52; 4: 5.43; 5: 6.03; 6: 5.31

Provide the reported pIC50 of each entry below, same order.
1. C[C@@H]1CN(c2ccc(Nc3nc(N)c(C(=O)c4c(F)cccc4F)s3)cc2)C[C@H](C)N1 [J(5)]
2. CN1CCN(c2ccc(Nc3nc(N)c(C(=O)c4c(Cl)cncc4Cl)s3)cc2)CC1 [C(70)]

Result:
[6.05, 5.24]

---

Test system: Saos-2
assay: Inhibition of cell growth, MTT assay, Saos-2
Type: cell-based
condition details: Homo sapiens; Saos-2, MTT assay
Assign pIC50 to each entry below.
One number for each entry, as −log10 of the molar value.

Below, each entry is followed by its recorded pIC50 result.
[[record]]
compound = "C[C@H]1CN(c2ccc(Nc3nc(N)c(C(=O)c4c(F)cccc4F)s3)cc2)CCN1C"
endpoint_value = 6.05

[[record]]
compound = "Nc1nc(Nc2ccc(N3CCNCC3)cc2)sc1C(=O)c1c(Cl)cc(Cl)cc1Cl"
endpoint_value = 6.00

[[record]]
compound = "Nc1nc(Nc2ccc3nc[nH]c3c2)sc1C(=O)c1c(Cl)cccc1Cl"
endpoint_value = 5.05

[[record]]
compound = "Cc1cc(N)sc1C(=O)c1sc(Nc2ccc(S(N)(=O)=O)cc2)nc1N"
endpoint_value = 4.77

[[record]]
compound = "COc1ccc(Nc2nc(N)c(C(=O)c3ccccc3C#N)s2)cc1"
endpoint_value = 6.00


Give one value of pIC50 per listed compound.
1. Cc1ccsc1C(=O)c1sc(Nc2ccc(C(=O)C3COC(=O)[C@H]3N)cc2)nc1N (stereo partly drawn)
2. CNS(=O)(=O)c1ccc(Nc2nc(N)c(C(=O)c3sccc3C)s2)cc1

Result:
1: 5.70; 2: 5.89

---

Assignment: determine reported pKi for the given compounds.
test system: CDK2/cyclin A (Homo sapiens)
Construct: made in house; host or cells: CDK2: insect cells (baculovirus); cyclin A: E. coli, then limited proteolysis
assay: Inhibition of CDK2/cyclin A retinoblastoma kinase activity
Assay type: biochemical
condition details: read-out: Ki CDK 2/A
Answers are plain numbers, as −log10 of the molar value.

Examples with their reported pKi follow.
[[record]]
compound = "Cc1nc2ccc(Nc3nc(N)c(C(=O)c4ccccc4[N+](=O)[O-])s3)cc2[nH]1"
endpoint_value = 6.53

[[record]]
compound = "Nc1nc(Nc2ccc(N3CCOCC3)cc2)sc1C(=O)c1c(Cl)cncc1Cl"
endpoint_value = 6.20

[[record]]
compound = "Nc1nc(Nc2ccc3nc[nH]c3c2)sc1C(=O)c1c(Cl)cc(Br)c(N)c1Cl"
endpoint_value = 7.09


Record pKi per entry; entries follow.
1. CC(C)(C)OC(=O)N1CCN(c2ccc(Nc3nc(N)c(C(=O)c4c(F)cccc4F)s3)cc2)CC1
2. Nc1nc(Nc2ccc3nc[nH]c3c2)sc1C(=O)c1c(F)cccc1F
3. CC1(C)CN(c2ccc(Nc3nc(N)c(C(=O)c4c(F)cccc4F)s3)cc2)CCN1
4. CN(C)CCN(C)c1ccc(Nc2nc(N)c(C(=O)c3c(F)cccc3F)s2)cc1
5. Nc1nc(Nc2ccc3nc[nH]c3c2)sc1C(=O)c1c(Cl)cccc1Cl
6. Nc1nc(Nc2ccc(N3CCC(C(=O)O)CC3)cc2)sc1C(=O)c1c(F)cccc1F

Result:
1. 6.52
2. 6.79
3. 6.26
4. 6.59
5. 6.98
6. 6.54

---

test system: complex of cyclin D1 and a fusion protein of human CDK4 and glutathione-S-transferase (GST-CDK4) (Homo sapiens, UniProt P11802)
Construct: made in house; host or cells: insect cells, co-infected with baculovirus
Sequence (P11802 whole entry, the tested form may be a part): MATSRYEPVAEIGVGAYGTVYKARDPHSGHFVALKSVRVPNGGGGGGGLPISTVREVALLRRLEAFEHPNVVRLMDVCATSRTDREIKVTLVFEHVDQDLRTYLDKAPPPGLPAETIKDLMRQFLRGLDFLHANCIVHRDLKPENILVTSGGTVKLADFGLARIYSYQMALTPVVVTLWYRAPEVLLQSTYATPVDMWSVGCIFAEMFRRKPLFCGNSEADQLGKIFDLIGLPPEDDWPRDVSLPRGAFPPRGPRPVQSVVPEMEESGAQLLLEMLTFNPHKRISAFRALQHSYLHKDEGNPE
Sequence (P24385 whole entry partner, the tested form may be a part): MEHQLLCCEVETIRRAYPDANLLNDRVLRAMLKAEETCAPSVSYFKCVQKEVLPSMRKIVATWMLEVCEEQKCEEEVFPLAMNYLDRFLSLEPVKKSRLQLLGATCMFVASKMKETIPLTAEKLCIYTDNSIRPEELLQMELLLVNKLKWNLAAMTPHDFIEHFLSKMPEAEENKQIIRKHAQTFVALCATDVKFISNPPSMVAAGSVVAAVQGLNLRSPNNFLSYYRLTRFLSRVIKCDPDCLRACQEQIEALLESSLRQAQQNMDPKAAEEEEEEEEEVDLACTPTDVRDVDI
assay: Inhibition of CDK4/cyclin D retinoblastoma kinase activity (D-type cyclin is D1)
Format: biochemical
condition details: superscript b: D-type cyclin is D1; μM; read-out: Ki CDK 4/D
readout type: Ki

[[record]]
smiles_notation = "CC(=O)c1sc(Nc2ccccc2)nc1N"
endpoint_value = "~30 µM"

[[record]]
smiles_notation = "Nc1nc(Nc2ccccc2)sc1C(=O)C1CC1"
endpoint_value = "3.1 µM"


--- query ---
Request: Could you share which Ki value was measured for `CC(=O)c1sc(NCc2ccccc2)nc1N` ?
Result: > 100 µM

---

System: Saos-2
assay: Inhibition of cell growth, MTT assay, Saos-2
Format: cell-based
condition details: Homo sapiens; Saos-2, MTT assay
Where a name gives a salt, the structure may show the parent alone.
Could you please report measured log10 of IC50 for the items listed next?
Quick note: numbers are log10 of IC50, with nM as the unit.

Below: 3 compounds and their reported log10 of IC50.
[[record]]
compound = "Cc1ccsc1C(=O)c1sc(Nc2ccc(N3CCNCC3)cc2)nc1N [H(1), Trihydrochloride]"
readout_type = "log10 of IC50"
endpoint_value = 2.86

[[record]]
compound = "C[C@@H]1CN(c2ccc(Nc3nc(N)c(C(=O)c4c(F)cccc4F)s3)cc2)CCN1C [C(124)]"
readout_type = "log10 of IC50"
endpoint_value = 2.99

[[record]]
compound = "Cc1ccc(C(=O)c2sc(Nc3ccc(S(N)(=O)=O)cc3)nc2N)c(C)c1 [C(35)]"
readout_type = "log10 of IC50"
endpoint_value = 3.90


Record log10 of IC50 for all entries; do not skip any.
1. Nc1nc(Nc2ccc3nc[nH]c3c2)sc1C(=O)c1c(Cl)cc(Br)c(N)c1Cl [C(91)]
2. NC(=O)c1ccc(Nc2nc(N)c(C(=O)c3c(F)cccc3C(F)(F)F)s2)cc1 [C(113)]
3. Nc1nc(Nc2ccc(S(N)(=O)=O)cc2)sc1C(=O)c1c(F)cc(F)cc1F [C(115)]
4. Cc1c(C(=O)c2sc(Nc3ccc(S(N)(=O)=O)cc3)nc2N)sc2ccccc12 [C(49)]
5. Nc1nc(Nc2ccc(N3CCN(c4ccccn4)CC3)cc2)sc1C(=O)c1c(F)cccc1F [K]
6. CC1(C)CN(c2ccc(Nc3nc(N)c(C(=O)c4c(F)cccc4F)s3)cc2)CCN1 [J(6)]
7. Nc1nc(Nc2ccc(C(=O)C3COC(=O)[C@H]3N)cc2)sc1C(=O)c1c(Cl)cncc1Cl (stereo partly drawn) [C(88)]
8. Nc1nc(Nc2ccc(N3CCNCC3)cc2)sc1C(=O)c1c(Cl)cccc1Cl [H(3)]

Result:
3.77
3.45
2.90
3.60
3.78
2.67
4.34
3.26
